# Test system: LOC_OS02G17970-cb001
# method notes: thermal shift delta Tm vs DMSO control; higher = stronger stabilization (binding);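 also: purified Escherichia coli-expressed rice kinase domain construct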
# stated conditions: 12.5 µM; protein concentration 2 µM
Where a name gives a salt, the structure may show the parent alone.
# thermal shift delta Tm annotations
Just the number in °C, nothing appended.

These solved cases illustrate the format of a correct answer.
compound | value kind | unit tag | value reported
Cc1cc(C(=O)Nc2nc3cccc(Cl)c3n2[C@@H]2CCCCN(C(=O)/C=C/CN(C)C)C2)ccn1 [Nazartinib (EGF816, NVS-816)] | thermal shift delta Tm | °C | 1.28
c1cn2cc(-c3ccc4cn[nH]c4c3)nc(Nc3ccc(N4CCOCC4)cc3)c2n1 [Entospletinib (GS-9973)] | thermal shift delta Tm | °C | 0.54
COc1ccc(F)c(F)c1C(=O)c1cnc(NC2CCN(S(C)(=O)=O)CC2)nc1N | thermal shift delta Tm | °C | -0.09

I'd like to know its thermal shift delta Tm. The compound in question is CNC(=O)c1cc(COc2nnc(Nc3ccc(Cl)cc3)c3ccoc23)ccn1 [Telatinib]
1.35

# lookup: thermal shift delta Tm of CN1CC[C@H](c2c(O)cc(O)c3c(=O)cc(-c4ccccc4Cl)oc23)[C@H](O)C1 [Flavopiridol HCl]
0.78

Record request: thermal shift delta Tm value, item C=CC(=O)Nc1ccc2ncnc(Nc3cccc(Br)c3)c2c1
0.66

# get_value(readout='thermal shift delta Tm', item= c1cc(-c2cnn3cc(-c4ccc(OCCN5CCCCC5)cc4)cnc23)ccn1 [Dorsomorphin 2HCl] )
-0.02

Would you kindly share the measured thermal shift delta Tm for O=C1NC(=O)/C(=C/c2ccc(-c3ccc(F)cc3O)o2)S1 ?
1.7

Tell me the measured thermal shift delta Tm of CCCCNc1ncc(C(=O)NCc2ccc(-n3ccnc3)cc2)c(NC2CCC(O)CC2)n1 (stereo unspecified) , please.
1.08

Recorded thermal shift delta Tm for O=c1cc(N2CCOCC2)oc2c(-c3cccc4c3sc3ccccc34)cccc12 , please?
0.12

Given O=C1Cc2c([nH]c3ccc(Br)cc23)-c2ccccc2N1 [Kenpaullone] , state its recorded thermal shift delta Tm.
2.97

Return reported thermal shift delta Tm; argument: c1cncc(CN2CCC(n3ncc4c(N5CCOCC5)nc(-c5ccc6[nH]ccc6c5)nc43)CC2)c1
0.27

Record request: thermal shift delta Tm value, item CC[C@H](CO)Nc1nc(NCc2ccccc2)c2ncn(C(C)C)c2n1 [Roscovitine (Seliciclib,CYC202)]
0.31

thermal shift delta Tm for NCC(=O)Nc1ccc(-n2nc(C(F)(F)F)cc2-c2ccc3c(ccc4ccccc43)c2)cc1 ?
-0.34

Which thermal shift delta Tm value is on record for CNC(=O)c1ccc(C)c(-n2c(C)cc(OCc3ccc(F)cc3F)c(Br)c2=O)c1 ?
0.83

====

# thermal shift delta Tm listing for each entry below
# System: LOC_OS01G21960-cb002
# method notes: thermal shift delta Tm vs DMSO control; higher = stronger stabilization (binding)
# stated conditions: 12.5 µM; protein concentration 2 µM

Reference set (6 entries):
compound | thermal shift delta Tm
CS(=O)(=O)CCNCc1ccc(-c2ccc3ncnc(Nc4ccc(OCc5cccc(F)c5)c(Cl)c4)c3c2)o1 | 0.5 °C
COc1ccc2c(Oc3ccc(NC(=O)c4c(C)n(CC(C)(C)O)n(-c5ccccc5)c4=O)nc3)ccnc2c1 | 0.62 °C
CC(C)(O)CNc1ncc(-c2ccnc(Nc3ccnc(Cl)c3)n2)c(CC2CC2)n1 | 0.91 °C
CCOc1cc2ncc(C#N)c(Nc3ccc(OCc4ccccn4)c(Cl)c3)c2cc1NC(=O)/C=C/CN(C)C [Neratinib (HKI-272)] | 0.71 °C
CNc1nc(Nc2cn(C(C)(C)C#N)nc2C)ncc1C(F)(F)F | 1.18 °C
Cc1cc(Nc2nc(N[C@@H](C)c3ncc(F)cn3)ncc2Cl)[nH]n1 | 2.53 °C

What value of thermal shift delta Tm has been recorded for this entry: Cn1cc(-c2ccc3ncc(Cc4ccc5ncccc5c4)n3n2)cn1
0.62 °C

Given the compound O=C(O[C@@H]1Cc2c(O)cc(O)cc2O[C@@H]1c1cc(O)c(O)c(O)c1)c1cc(O)c(O)c(O)c1 [(-)-Epigallocatechin Gallate] , what is its reported thermal shift delta Tm?
4.17 °C

====

The entries below come with measured thermal shift delta Tm values attached.
# System: LOC_OS05G43570-cb004
# method notes: thermal shift delta Tm vs DMSO control; higher = stronger stabilization (binding)
# stated conditions: 12.5 µM; protein concentration 2 µM
Number only, in °C; omit the unit.

Examples with their reported thermal shift delta Tm follow.
compound | value reported
CCc1nc(C(N)=O)c(Nc2ccc(N3CCC(N4CCN(C)CC4)CC3)c(OC)c2)nc1NC1CCOCC1 | 1.54
N#Cc1ccc(-c2c(-c3ncn[nH]3)sc(N3CCOCC3)c2C#N)c(F)c1 | 0.57
CCCS(=O)(=O)Nc1ccc(F)c(C(=O)c2c[nH]c3ncc(-c4ccc(Cl)cc4)cc23)c1F | 1.69
C=CC(=O)Nc1cccc(Nc2nc(Nc3ccc(OCCOC)cc3)ncc2F)c1 | 1.03
Cc1cc(Nc2ncnc3ccc(-c4ccc(CNCCS(C)(=O)=O)o4)cc23)ccc1Oc1ccn2ncnc2c1 | 0.41

Field: thermal shift delta Tm (LOC_OS05G43570-cb004). Entry: CC(C)(C)Cn1c(N)nc2ccc(-c3[nH]c(C(C)(C)C)nc3-c3ccc(F)cc3)nc21
0.33

Request: thermal shift delta Tm, test system LOC_OS05G43570-cb004, entry Nc1ncc(-c2ccnc(Nc3ccncc3)n2)c(CC2CC2)n1
0.4

Lab note: need thermal shift delta Tm for CN1CCC(Nc2nc(Nc3ccc(Oc4ccccc4)cc3)c3c(=O)[nH]cc(Br)c3n2)CC1 on LOC_OS05G43570-cb004, anyone have it?
1.11

// lookup thermal shift delta Tm | system=LOC_OS05G43570-cb004 | key= CN(C)C[C@@H]1CCn2cc(c3ccccc32)C2=C(C(=O)NC2=O)c2cn(c3ccccc23)CCO1
0.63

====

# Tested on: LOC_OS04G57630-cb004
# method notes: thermal shift delta Tm vs DMSO control; higher = stronger stabilization (binding)
# stated conditions: 12.5 µM; protein concentration 2 µM
Reported thermal shift delta Tm is given for each of the following compounds.
Number only, in °C; omit the unit.

Example entries and their recorded answers appear below.
compound | unit tag | thermal shift delta Tm
CNC(=O)c1ccccc1Nc1nc(Nc2ccc(N3CCOCC3)cc2OC)ncc1Cl | °C | 1.29
O=C1c2c(O)cc(O)cc2OC(c2ccc(O)c(O)c2)C1O (configuration not stated) [Taxifolin (Dihydroquercetin)] | °C | 0.11
Cc1cnc(NC(=O)Nc2cc(Br)c(C)cc2OC[C@@H]2CNCCO2)cn1 | °C | 0.36
O=C1NC(=O)/C(=C/c2ccc(-c3ccc(F)cc3O)o2)S1 | °C | 1.54
CC(C)(C)c1cc(NC(=O)Nc2ccc(-c3cn4c(n3)sc3cc(OCCN5CCOCC5)ccc34)cc2)no1 | °C | 0.97

Then there is this compound:
Item under review: Cc1c[nH]c2nc(Nc3ccc(N4CCN(C)CC4)c(F)c3)nc(-c3cccc(CC#N)c3)c12 . Reported thermal shift delta Tm?
4.89

====

# Tested on: LOC_OS05G07850-cb002
# method notes: thermal shift delta Tm vs DMSO control; higher = stronger stabilization (binding)
# stated conditions: 12.5 µM; protein concentration 2 µM
In this section, each of the compounds is paired with its reported thermal shift delta Tm.
Express the result in °C but write the number alone.

Could you tell me which thermal shift delta Tm is on file for O=c1[nH]nc(Sc2ncc([N+](=O)[O-])s2)n1-c1ccc2c(c1)OCCO2 ?
-1.46

====

# Tested on: LOC_OS05G30820-cb001
# method notes: thermal shift delta Tm vs DMSO control; higher = stronger stabilization (binding)
# stated conditions: 12.5 µM; protein concentration 2 µM
# reported thermal shift delta Tm; entries follow
Value expressed in °C; do not type the unit.

Some solved cases for reference:
compound | target under test | unit tag | thermal shift delta Tm
CCCCCCCCCC(=O)CC(O)S(=O)(=O)O (stereo not given) [Sodium Houttuyfonate] | LOC_OS05G30820-cb001 | °C | 0.21
CC(=O)c1c(C)c2cnc(Nc3ccc(N4CCNCC4)cn3)nc2n(C2CCCC2)c1=O | LOC_OS05G30820-cb001 | °C | 0.23
Cc1ncc(CO)c(CO)c1O | LOC_OS05G30820-cb001 | °C | 0.06
CC(C)(O)CC(=O)NCCn1ccc2ncnc(Nc3ccc(Oc4cccc(C(F)(F)F)c4)c(Cl)c3)c21 | LOC_OS05G30820-cb001 | °C | 0.35

Would you kindly share the measured thermal shift delta Tm for Cc1nc(Nc2n[nH]c3c2CN(C(=O)N[C@H](CN(C)C)c2ccccc2)C3(C)C)c2sccc2n1 ?
0.45

====

# Tested on: LOC_OS07G06570-cb004
# method notes: thermal shift delta Tm vs DMSO control; higher = stronger stabilization (binding)
# stated conditions: 12.5 µM; protein concentration 2 µM
value kind: thermal shift delta Tm (°C)
Your answer should be a plain number; it is taken to be in °C.

compound | unit tag | thermal shift delta Tm
Oc1c(F)cc(-c2cnccc2-c2ccc(N3CCOCC3)cc2)cc1F | °C | 0.96
FC(F)(F)c1ccc(CNc2ccc(Cc3c[nH]c4ncc(Cl)cc34)cn2)cn1 | °C | 0.14
O=C(NCCO)c1cccc(-c2cc(Nc3ccc(OC(F)(F)F)cc3)ncn2)c1 | °C | 0.21
Cn1cnc2c(F)c(Nc3ccc(Br)cc3F)c(C(=O)NOCCO)cc21 | °C | 1.32
COc1cccc2cc(-c3nc([C@H]4CC[C@H](C(=O)O)CC4)n4ncnc(N)c34)[nH]c12 | °C | 0.52
Cc1cccc(CC(=O)N2CCc3c2ccc(-c2cn(C)c4ncnc(N)c24)c3F)n1 | °C | 1.03
Cc1ccc2nc(NCCN)c3ncc(C)n3c2c1 | °C | 1.79
Cc1ccc(F)c(NC(=O)Nc2ccc(-c3cccc4[nH]nc(N)c34)cc2)c1 | °C | 0.72

Would you kindly share the measured thermal shift delta Tm for Cn1ncc(Cl)c1-c1cc(C(=O)N[C@H](CN)Cc2cccc(F)c2)sc1Cl ?
1.37
